Data provenance is patent US20130023563A1.

# TESTED SYSTEM: FXa (Homo sapiens, UniProt P00742)
# Sequence (P00742 235-488 limits assumed): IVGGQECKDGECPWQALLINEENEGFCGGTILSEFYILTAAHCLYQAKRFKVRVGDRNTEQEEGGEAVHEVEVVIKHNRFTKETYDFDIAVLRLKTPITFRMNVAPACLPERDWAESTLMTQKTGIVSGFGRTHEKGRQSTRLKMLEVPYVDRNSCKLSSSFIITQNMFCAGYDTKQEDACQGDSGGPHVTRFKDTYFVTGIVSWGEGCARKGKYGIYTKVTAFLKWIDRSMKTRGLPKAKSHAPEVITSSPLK
# Sequence (P00742 41-179 partner limits assumed): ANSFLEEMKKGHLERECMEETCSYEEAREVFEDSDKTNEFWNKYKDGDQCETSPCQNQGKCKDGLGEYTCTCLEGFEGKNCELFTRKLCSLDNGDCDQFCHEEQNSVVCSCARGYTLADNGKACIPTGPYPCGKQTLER
# EXPERIMENT NOTES: Measurement of inhibitory activity against activated factor X (chromogenic substrate S-2222)
# Format: biochemical
# COND: 0.015 U/ml FXa, 0.2 mM S-2222, absorbance 405 nm; read-out: FXa (pIC50) (converted)
PROPERTY MEASURED: IC50 (nM)

>>> df
                                   molecule  unit_annotation  recorded_number
0  C[C@@H](C(=O)Oc1ccc(C(=N)N2CCCC2)cc1)N(C)c1cccc(C(=N)N)c1 [compound of Ex. 4]               nM             13.5
1  N=C(N)c1cccc(N2CCCC[C@@H]2C(=O)Oc2ccc(C(=N)N3CCCC3)cc2)c1 [compound of Ex. 18]               nM             4.57
2  CN(CC(=O)Oc1ccc(C(=N)N2CCCC2)cc1)c1cccc(C(=N)N)c1 [compound of Ex. 1]               nM             45.7
3  CCCC[C@@H](C(=O)Oc1ccc(C(=N)N2CCCC2)cc1C)N(C)c1cccc(C(=N)N)c1 [compound of Ex. 45]               nM             3.02
4  CCC(C)[C@H](C(=O)Oc1ccc(C(=N)N2CCCC2)cc1F)N(C)c1cccc(C(=N)N)c1 (stereo partly shown) [compound of Ex. 39]               nM             15.1

P = CN(c1cccc(C(=N)N)c1)[C@@H](Cc1ccccc1)C(=O)Oc1ccc(C(=N)N2CCCC2)cc1 [compound of Ex. 46]
Q = CC(=N)N1CCC(Oc2ccc(OC(=O)c3cc(C(F)(F)F)nn3-c3cccc(C(=N)N)c3)cc2)CC1 [compound of Ex. 57]
Input line: Quick one: lower IC50, P or Q ? Reply with the label of the item you choose.
Output line: P

---

# TESTED SYSTEM: activated factor IIa (thrombin) (Homo sapiens, UniProt P00734)
# EXPERIMENT NOTES: Measurement of inhibitory activity against activated factor II (chromogenic substrate S-2238)
# Format: biochemical
# COND: 0.125 U/ml thrombin, 0.1 mM S-2238, absorbance 405 nm; read-out: FIIa (pIC50) (converted)
PROPERTY MEASURED: IC50 (µM)

Reference set (5 entries):
>>> df
                                   compound  property_measured  recorded_number
0  CCCC[C@@H](C(=O)Oc1ccc(C(=N)N2CCCC2)cc1OC)N(C)c1cccc(C(=N)N)c1 [compound of Ex. 43]               IC50            0.977
1  CCCC[C@@H](C(=O)Oc1ccc(C(=N)N2CCCC2)cc1C)N(C)c1cccc(C(=N)N)c1 [compound of Ex. 45]               IC50             2.57
2  N=C(N)c1cccc(N2CCCC[C@@H]2C(=O)Oc2ccc(C(=N)N3CCCC3)cc2Cl)c1 [compound of Ex. 20]               IC50              1.2
3  CC(=N)N1CCC(Oc2ccc(OC(=O)[C@H](C)N(C)c3cccc(C(=N)N)c3)cc2)CC1 [compound of Ex. 6]               IC50             33.1
4  CN(c1cccc(C(=N)N)c1)[C@@H](Cc1ccccc1)C(=O)Oc1ccc(C(=N)N2CCCC2)cc1 [compound of Ex. 46]               IC50             15.5

I = CC(=N)N1CCC(Oc2ccc(OC(=O)[C@H]3CCCCN3c3cccc(C(=N)N)c3)cc2)CC1 [compound of Ex. 19]
II = CC(C)[C@@H](C(=O)Oc1ccc(C(=N)N2CCCC2)cc1)N(C)c1cccc(C(=N)N)c1 [compound of Ex. 28]
Input line: Sort I and II by IC50 descending and give the first. Reply with the label of the item you choose.
Output line: II
(II: 14.1 µM, I: 3.39 µM)

---

# TESTED SYSTEM: FXa (Homo sapiens)
# EXPERIMENT NOTES: Measurement of inhibitory activity against activated factor X (chromogenic substrate S-2222)
# Assay type: biochemical
# COND: 0.015 U/ml FXa, 0.2 mM S-2222, absorbance 405 nm; read-out: FXa (pIC50) (converted)
PROPERTY MEASURED: IC50 (nM)

In [3]: df
Out[3]:
                                   compound  property_measured  recorded_number
0  CC(C)C[C@@H](C(=O)Oc1ccc(C(=N)N2CCCC2)cc1)N(C)c1cccc(C(=N)N)c1 [compound of Ex. 29]               IC50             11.2

1 = CC(=N)N1CCC(Oc2ccc(OC(=O)[C@H](CO)N(C)c3cccc(C(=N)N)c3)cc2)CC1 [compound of Ex. 42]
2 = CC(=N)N1CCC(Oc2ccc(OC(=O)[C@H]3CCCCN3c3cccc(C(=N)N)c3)cc2)CC1 [compound of Ex. 19]
Input line: Sort 1 and 2 by IC50 descending and give the first. Reply with the label of the item you choose.
Output line: 1
(1: 13.8 nM, 2: 7.76 nM)

---

# TESTED SYSTEM: FXa (Homo sapiens)
# EXPERIMENT NOTES: Measurement of inhibitory activity against activated factor X (chromogenic substrate S-2222)
# Assay type: biochemical
# COND: 0.015 U/ml FXa, 0.2 mM S-2222, absorbance 405 nm; read-out: FXa (pIC50) (converted)
PROPERTY MEASURED: IC50 (nM)

Reference set (5 entries):
>>> df
                                  structure       tested_system  property_measured  unit_annotation  recorded_number
0  CCCC[C@H](C(=O)Oc1ccc(OC2CCN(C(C)=N)CC2)cc1)N(C)c1cccc(C(=N)N)c1  FXa (Homo sapiens)               IC50               nM             2.95
1  CC(=N)N1CCC(Oc2ccc(OC(=O)[C@@H](COC(C)(C)C)N(C)c3cccc(C(=N)N)c3)cc2)CC1  FXa (Homo sapiens)               IC50               nM             4.47
2  CC(=N)N1CCC(Oc2ccc(OC(=O)[C@@H]3CCCCN3c3cccc(C(=N)N)c3)cc2)CC1  FXa (Homo sapiens)               IC50               nM             40.7
3  N=C(N)c1cccc(N2CCCC[C@@H]2C(=O)Oc2ccc(C(=N)N3CCCC3)cc2Cl)c1  FXa (Homo sapiens)               IC50               nM             6.46
4  CC(C)[C@@H](C(=O)Oc1ccc(C(=N)N2CCCC2)cc1)N(C)c1cccc(C(=N)N)c1  FXa (Homo sapiens)               IC50               nM             30.9

1 = COC(=O)c1cc(C(=N)N2CCCC2)ccc1OC(=O)[C@H]1CCCCN1c1cccc(C(=N)N)c1
2 = CCC[C@H](C(=O)Oc1ccc(OC2CCN(C(C)=N)CC2)cc1)N(C)c1cccc(C(=N)N)c1
Input line: Quick one: lower IC50, 1 or 2 ? Reply with the label of the item you choose.
Output line: 2
(2: 3.16 nM, 1: 14.1 nM)

---

# EXPERIMENT NOTES: Evaluation of stability in liver S9 fraction
# Type: in vitro ADME
# COND: human liver S9 fraction 2 mg/mL, 2 μM, 37° C.
PROPERTY MEASURED: residual ratio (%) of liver S9 fraction 30 min later

Reference set (2 entries):
>>> df
                                  structure  unit_annotation  recorded_number
0  N=C(N)c1cccc(N2CCC[C@H]2COC(=O)c2ccc(C(=N)N3CCCC3)cc2)c1                %               80
1  N=C(N)c1cccc(N2C[C@H](OCc3ccccc3)C[C@H]2C(=O)Oc2ccc(C(=N)N3CCCC3)cc2)c1                %               86

a = C[C@H](C(=O)Oc1ccc(C(=N)N2CCCC2)cc1)N(C)c1cccc(C(=N)N)c1
b = CC(=N)N1CCC(Oc2ccc(C(=O)OC[C@@H]3CCCN3c3cccc(C(=N)N)c3)cc2)CC1
Input line: Quick one: lower residual ratio (%) of liver S9 fraction 30 min later, a or b ? Reply with the label of the item you choose.
Output line: a
